The measurements presented in this section are drawn from patent US20260167959A1.

Collected Fold change in RNA expression between the ON state and the OFF state values appear next to each entry.
Test system: Renilla luciferase RNA
run description: Barcoded aptazyme variant library screen: un-cleaved Renilla luciferase RNA by barcode read counts, HEK293-T cells
Type: cell-based
assay setup: un-cleaved Renilla luciferase RNA, HEK293-T cells cultured with 1 mM theophylline (ON) over without theophylline (OFF); barcode read counts, triplicate
quantity name: Fold change in RNA expression between the ON state and the OFF state (fold)

[[record]]
molecule = "RA247 (nucleic acid, expressed or natural sequence) DNA: GCGCGTCCTGGATTCGCGGAAACGCGTACATCCAGCTGAGGAATACCAGCATCGTCTTGATGCCCTTGGAAGTCCCGAGTCCCAAATAGGACGAAACGCGC"
observed_measurement = 1.1

[[record]]
molecule = "RA033 (nucleic acid, expressed or natural sequence) DNA: GCGCGTCCTGGATTCGCGGAAACGCGTACATCCAGCTGACGAGTCCCAAATCCGGAATACCAGCATCGTCTTGATGCCCTTGGAAGTCCGGAGGACGAAACGCGC"
observed_measurement = 2.3

[[record]]
molecule = "RA045 (nucleic acid, expressed or natural sequence) DNA: GAGAATACCAGCATCGTCTTGATGCCCTTGGAAGTCTCGCGCGTCCTGGATTCGCGGAAACGCGTACATCCAGCTGACGAGTCCCAAATAGGACGAAACGCGC"
observed_measurement = 2.0

[[record]]
molecule = "RA212 (nucleic acid, expressed or natural sequence) DNA: GCGCGTCCTGGATTCAGAATACCAGCATCGTCTTGATGCCCTTGGAAGTCTGCGGAAACGCGTACATCCAGCTGACGAGTCCCAAATAGGACGAAACGCGC"
observed_measurement = 1.2

[[record]]
molecule = "RA168 (nucleic acid, expressed or natural sequence) DNA: GCGCGTCCTGGATCGAGAATACCAGCATCGTCTTGATGCCCTTGGAAGTCTCGTCGCGGAAACGCGTACATCCAGCTGACGAGTCCCAAATAGGACGAAACGCGC"
observed_measurement = 1.3

[[record]]
molecule = "RA294 (nucleic acid, expressed or natural sequence) DNA: GCGCGTCCTGGATTCGCGGAAACGAGAATACCAGCATCGTCTTGATGCCCTTGGAAGTCTCGCGTACATCCAGCTGACGAGTCCCAAATAGGACGAAACGCGC"
observed_measurement = 1.0

[[record]]
molecule = "RA225 (nucleic acid, expressed or natural sequence) DNA: GCGCGTCCTGGATTCGCGGAAACGCGTACATCCAGCTGACGAGTCCCAAATAAGAATACCAGCATCGTCTTGATGCCCTTGGAAGTCTGGACGAAACGCGC"
observed_measurement = 1.1

